experiment: NCI Yeast Anticancer Drug Screen. Data for the rad50 strain (AID 155);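 note: 0% = growth of vehicle-only cultures of the same strain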; settings: S. cerevisiae rad50 strain growth inhibition; at 50.0 µM; active compounds read high
Compounds without any hit were thinned out: in the full panel of roughly 79,000, 15% have a hit.
assay-readout: growth inhibition (%)

INSERT INTO assay_data (compound, result) VALUES
  ('CC1(C)Cc2[nH]c3ccccc3c(=O)c2-c2nc3ccccc3c(=O)n21', -5.35),
  ('COc1ccc(/C=N/NC(=O)O)cc1', 4.55),
  ('Cc1ccc(NC(=O)CCC(=O)C2Cc3ccccc3C2=O)cc1C (configuration not stated)', -16),
  ('N=c1oc2cc(O)ccc2cc1C(=O)NCc1ccccc1', 17.8),
  ('COc1cc2c(c(Cl)c1OC)CCN(C)CC2c1ccccc1 (configuration not stated)', -5.25),
  ('CCCCC(O)(CCCC)CC(C)C', 8.4),
  ('CCCCCCNC(C)=O', 13.6),
  ('Cc1c[n+]2c(C)cccc2n1C', 10.9),
  ('CSc1cnc(N)s1', 14.6),
  ('Cc1cc2c(C)nn(Cc3ccc(Cl)cc3)c2c(C#N)c1C', 25.4),
  ('COc1ccc(C(=O)O[C@H]2[C@@H]3C=CO[C@@H](OC4OC(CO)C(O)C(O)C4O)[C@@H]3[C@@]3(CO)O[C@@H]23)cc1O (some centres not stated)', 31.9),
  ('CCCCCCCCCCCCCCCCNc1nc(=O)n(C2CC(O)C(COP(=O)(O)OC3CC(n4cc(F)c(=O)[nH]c4=O)OC3CO)O2)cc1F (configuration not stated)', -2.05),
  ('Nc1c(F)c(F)cc(F)c1[N+](=O)[O-]', 2.6),
  ('S=C1NC(/C=C/c2ccccc2)Nc2ccccc21 (configuration not stated)', 62.2),
  ('CC(=O)c1c(C)[nH]c(C(=O)O)c1C', 24.7),
  ('CCC(=O)C(CC)Cc1ccc(OC)c(OC)c1 (configuration not stated)', 1.4),
  ('O=C(O)/C(Cc1ccnc2ccccc12)=N\O', -1.35),
  ('CC(C(=O)O)N(C)C(=O)OCc1ccccc1 (configuration not stated)', -3.95),
  ('CCOC(C)OCCCI (configuration not stated)', -25.8),
  ('CCCCCCCCCCCCCCCC/C(C(=O)OC)=C(/O)C(=O)OCC', -4.7),
  ('COc1c(O)cc2oc(-c3ccc(O)cc3)cc(=O)c2c1O', 11),
  ('CC(=O)NNC(=O)NCCCCCCNC(=O)NNC(C)=O', 16.1);

----------
Assay: NCI Yeast Anticancer Drug Screen. Data for the mec2-1 strain (AID 157)
Conditions: S. cerevisiae mec2-1 strain, at 50.0 µM, active compounds read high
Description: Growth inhibition of yeast strains with defined genetic alterations is measured as a screen for potential anti-cancer activity. Selected strains with alterations in DNA damage repair or cell cycle control were exposed to compounds and growth inhibition was measured relative to vehicle treated controls. The strain used in this assay is mec2-1
The panel holds about 79,000 compounds, 15% with a hit somewhere; the sample as a whole holds those more often.
Quick list: growth inhibition per entry.
assay-readout: growth inhibition (%)

INSERT INTO assay_data (molecule, unit, result) VALUES
  ('O=C(O)C1CCCCC1O (stereo unspecified)', '%', 21.1),
  ('C[Si](C)(C)c1ccc(CC2(Cc3ccc([Si](C)(C)C)cc3)CCNC2)cc1', '%', -39),
  ('COc1cc2cc(-c3ccccn3)nc(N)c2cc1OC', '%', 9.35),
  ('CCOc1ccccc1C(=O)OCCCc1ccccc1', '%', 9.15),
  ('CC(=O)NC(Cc1cccc2ccccc12)C(=O)O (stereo unspecified)', '%', -6.15),
  ('COc1c(O)c(/C=C/C(=O)NN)cc2ccoc12', '%', -10.3),
  ('COc1cc2c(cc1O)C(Cc1ccccc1)N(C)CC2O (stereo unspecified)', '%', -4.7),
  ('O=C(Nc1ccc(Cl)c(Cl)c1)Nc1cccc2nsnc12', '%', 7.35),
  ('c1ccc(-c2cc(-c3ccccc3)nc(-c3ccccc3)c2)cc1', '%', -4.05),
  ('CC1C(C)(C)P(=O)(OCCOP2(=O)C(C)(C)C(C)C2(C)C)C1(C)C (stereo unspecified)', '%', -0.85),
  ('NCC(=O)NCC(=O)NCC(=O)NCC(=O)NCC(=O)NCC(=O)O', '%', 16.4);
